Taken from the OPERA property sets (Mansouri et al. 2018).

Kindly apply the following: t if logP is less than 3, f in every other case.

| Smiles repr | Class name |
| --- | --- |
| N#CC(C#N)=NNc1ccc(CCCl)cc1 | f |
| N#CC(C#N)=NNc1ccc(OC(F)(F)F)cc1 | f |
| N#CC(C#N)=NNc1cccc(O)c1 | t |
| N#CC(C#N)=NNc1ccc(Cl)cc1 | f |
| N#CC(C#N)=NNc1cccc(Cl)c1 | f |
| N#CC(C#N)=NNc1ccccc1[N+](=O)[O-] | t |
| Cc1ccc(NN=C(C#N)C#N)cc1 | f |
| CC(=O)Nc1ccc(NN=C(C#N)C#N)cc1 | t |
| CC(=O)c1ccc(NN=C(C#N)C#N)cc1 | t |
| N#CC(C#N)=NNc1ccc([N+](=O)[O-])cc1 | t |
